Origin of values: PubChem BioAssay AID1159580

- protocol notes: chemical genetic growth profiling, strain panel (AID 1159580);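 note: tested at 20 µM; growth read once vehicle control cultures reached saturation at 30 °C; 1 = growth at the plate median or of vehicle wells; lower values mean less growth of the strain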
- cond: S. cerevisiae deletion strains, growth OD, locus YGR135W, strain pre9, active compounds read low
The whole screen tested about 5,500 compounds, of which about 2,000 (36%) were called active. Roughly 18% stayed inconclusive and do not appear here. Some of the results follow.
This listing pairs compounds with measured normalized growth.
test readout: normalized growth

CC/C(=C(/CC)c1ccc(O)cc1)c1ccc(O)cc1
0.962
CCc1cccc(CC)c1N(COC)C(=O)CCl
1.02
CC[n+]1c(-c2ccccc2)c2cc(N)ccc2c2ccc(N)cc21
0.872
Cc1ccccc1OCC(O)CO (stereo not given)
0.99
CCC(c1ccc(O)cc1)C(CC)c1ccc(O)cc1 (stereo not given)
0.968
CC(C)c1c(O)c(-c2cc3c(c(C(C)C)c2O)CCC2C(C)(C)CCC[C@]32C)cc2c1CCC1C(C)(C)CCC[C@]21C (stereo not given in full)
1.01
O=c1cc(-c2ccc(O)cc2)oc2cc(O[C@@H]3O[C@H](CO)[C@@H](O)[C@H](O)[C@H]3O)cc(O)c12
0.973
O=C(O[C@@H]1Cc2c(O)cc(O)cc2O[C@@H]1c1cc(O)c(=O)c2c(O)c(O)cc([C@H]3Oc4cc(O)cc(O)c4C[C@H]3O)c2c1)c1cc(O)c(O)c(O)c1
0.789
CC(C)(C)NCC(O)c1cc(Cl)c(N)c(Cl)c1 (stereo not given)
1.01
CC12CCC3c4ccc(OC(=O)c5ccccc5)cc4CCC3C1CCC2O (stereo not given)
0.997
O=c1c(O)c(-c2ccc(O)cc2O)oc2cc(O)cc(O)c12
0.991
NC(=NCCC[C@H](N)C(=O)O)N[N+](=O)[O-]
1.06
COc1ccc(-c2oc3cc(O[C@H]4O[C@H](CO)[C@@H](O)[C@H](O)[C@H]4O)c(OC)c(O)c3c(=O)c2OC)cc1O
0.949
CC(C)c1c(O)ccc2c1CCC1[C@@](C)(CO)CCC[C@]21C (stereo not given in full)
0.93
C[C@]12CCC3c4ccc(O)cc4CCC3C1CC[C@@H]2O (stereo not given in full)
0.949
CCCCCCCCCCCC1=C(O)C(=O)C=C(O)C1=O
0.888
COC(=O)[C@@]1(C)CCC[C@]2(C)c3ccc(O)c(C(C)C)c3CCC12 (stereo not given in full)
0.957
NC(CSCSCC(N)C(=O)O)C(=O)O (stereo not given)
0.99
O=C(O[C@@H]1Cc2c(O)cc(O)cc2O[C@@H]1c1cc(O)c(=O)c2c(O)c(O)cc([C@H]3Oc4cc(O)cc(O)c4C[C@H]3OC(=O)c3cc(O)c(O)c(O)c3)c2c1)c1cc(O)c(O)c(O)c1
0.828
CC(=O)Oc1ccc2c(c1C(C)C)CCC1C(C)(C)CCC[C@]21C (stereo not given in full)
0.99
